Procedure Summary: Inhibition of DENV2 protease infected in human HeLa cells
Format: cell-based, dengue virus type 2
Condition Description: Dengue virus
Measurement Kind: EC50

Give me measured EC50, please, for this molecule: `CCCCCC(=O)N[C@H](C(=O)NCc1ccc(NC(=N)N)cc1)c1ccc(OCc2ccccc2)cc1` 490 nM

====

Measurement Target: Genome polyprotein (dengue virus type 2, UniProt P29990)
Sequence (P29990 1346-1475 limits assumed): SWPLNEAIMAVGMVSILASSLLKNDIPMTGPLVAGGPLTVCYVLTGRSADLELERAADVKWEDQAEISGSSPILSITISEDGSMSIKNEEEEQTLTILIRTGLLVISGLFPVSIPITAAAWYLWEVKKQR
Sequence (P29990 1476-2093 limits assumed): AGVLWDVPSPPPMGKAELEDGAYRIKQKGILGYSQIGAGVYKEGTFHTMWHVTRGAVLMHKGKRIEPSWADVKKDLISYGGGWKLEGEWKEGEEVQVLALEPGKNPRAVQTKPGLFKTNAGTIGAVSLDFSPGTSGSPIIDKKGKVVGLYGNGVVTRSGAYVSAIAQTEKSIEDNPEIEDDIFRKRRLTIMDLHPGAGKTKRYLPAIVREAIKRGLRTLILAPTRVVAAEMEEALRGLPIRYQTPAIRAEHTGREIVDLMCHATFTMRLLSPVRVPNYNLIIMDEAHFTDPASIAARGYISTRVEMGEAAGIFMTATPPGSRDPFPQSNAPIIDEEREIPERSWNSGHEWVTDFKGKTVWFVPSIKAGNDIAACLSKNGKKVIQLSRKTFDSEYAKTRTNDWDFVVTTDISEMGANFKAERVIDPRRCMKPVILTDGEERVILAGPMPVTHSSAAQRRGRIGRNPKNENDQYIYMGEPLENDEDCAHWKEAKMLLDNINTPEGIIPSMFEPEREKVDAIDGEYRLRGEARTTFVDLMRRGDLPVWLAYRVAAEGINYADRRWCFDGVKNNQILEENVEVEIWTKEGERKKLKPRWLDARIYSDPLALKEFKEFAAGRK
Procedure Summary: Inhibition of DENV2 NS2B-NS3 protease using fluorophore-tagged Bz-nKRR-AMC as substrate preincubated for 30 mins followed by substrate addition measured after 90 mins by microplate reader analysis
Measurement Kind: IC50 (nM)
Answer in nM, number only, no unit symbol.

Answer with the recorded IC50 for the molecule listed here: `COc1ccc(S(=O)(=O)n2nc(Oc3ccc(-c4ccccc4)cc3)cc2N)cc1` 2900

====

For each of the compounds below, state its Ki.
Procedure Summary: Binding affinity to wildtype DENV3 protease assessed as inhibition constant using [Ac-[D-EDANS]KRRSWP[K-DABCYL]-AMIDE] as substrate by FRET-based enzymatic assay
Set-up: species or system dengue virus type 3
Positions of bridges follow the written chain, without caps; N, C: chain ends. Residues, ends and D or L forms follow the SMILES beside them.
Please give a number only; it is taken to be in µM.

Provide measured Ki value, entry: CC[C@H](C)[C@@H]1NC(=O)[C@H](CCCNC(=N)N)NC(=O)[C@H](C)NC(=O)[C@H](CCCCN)NC(=O)[C@@H](NC(=O)[C@@H]2CCCN2)CSSC[C@@H](C(=O)N[C@@H](C)C(=O)O)NC(=O)CNC(=O)CNC(=O)[C@H](Cc2ccc(O)cc2)NC1=O (H-PCKARIYGGCA-OH; disulfide 2-10) 14.5

For the compound `CC[C@H](C)[C@@H]1NC(=O)[C@H](CCCNC(=N)N)NC(=O)[C@H](C)NC(=O)[C@H](CCCNC(=N)N)NC(=O)[C@@H](NC(=O)[C@@H]2CCCN2)CSSC[C@@H](C(=O)N[C@H](C)C(=O)O)NC(=O)CNC(=O)CNC(=O)[C@H](CC(=O)O)NC1=O` , report Ki. 69.3

Report Ki, nothing else, for this compound: CC[C@H](C)[C@@H]1NC(=O)[C@H](CCCNC(=N)N)NC(=O)[C@H](C)NC(=O)[C@H](CCCNC(=N)N)NC(=O)[C@@H](N)CSSC[C@@H](C(=O)N[C@@H](C)C(=O)O)NC(=O)CNC(=O)CNC(=O)[C@H](Cc2ccc(O)cc2)NC(=O)CNC1=O (H-CRARIGYGGCA-OH; disulfide 1-10) 145

Read off the recorded Ki for `CC[C@H](C)[C@@H]1NC(=O)[C@H](CCCNC(=N)N)NC(=O)[C@H](C(C)C)NC(=O)[C@H](CCCNC(=N)N)NC(=O)[C@@H](NC(=O)[C@@H]2CCCN2)CSSC[C@@H](C(=O)N[C@H](C)C(=O)O)NC(=O)CNC(=O)CNC(=O)[C@H](CC(=O)O)NC1=O` 35.8

Give the reported Ki for this compound. CC[C@H](C)[C@@H]1NC(=O)[C@H](CCCNC(=N)N)NC(=O)[C@H](C)NC(=O)[C@H](CCCCN)NC(=O)[C@@H](NC(=O)[C@@H]2CCCN2)CSSC[C@@H](C(=O)N[C@@H](CCCNC(=N)N)C(=O)O)NC(=O)CNC(=O)CNC(=O)[C@H](Cc2ccc(O)cc2)NC(=O)CNC(=O)CNC(=O)[C@H]([C@@H](C)CC)NC1=O (H-PCKARIIGGYGGCR-OH; disulfide 2-13) 232
